- system_under_test: T1, Human EphA2 (ephrin receptor A2) (human, UniProt P29317 24-976)
- T1 construct: Endogenous protein in frozen human tumor tissue and tumor adjacent tissue, not a recombinant construct
- experimental_protocol: IHC/IF score on frozen human tumor tissue, GAC
metric_name: IHC score

• AB-009813 (antibody, mouse IgG2a, V domains shown) VH: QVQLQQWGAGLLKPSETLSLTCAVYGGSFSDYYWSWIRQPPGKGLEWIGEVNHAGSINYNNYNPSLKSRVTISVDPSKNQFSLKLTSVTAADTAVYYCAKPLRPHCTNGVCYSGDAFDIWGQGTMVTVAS VL: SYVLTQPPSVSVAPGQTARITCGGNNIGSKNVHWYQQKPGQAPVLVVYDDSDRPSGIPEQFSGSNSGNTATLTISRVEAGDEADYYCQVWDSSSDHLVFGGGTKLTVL = 2

Value source: patent US20250051464A1
